Tested on: FB
testMethodNotes: Euclidean distance of Cell Painting phenotypic profile (signed KS, 77 features) to DMSO centroid (dimensionless distance); 5 or 10 uM (library dependent); higher = stronger phenotypic change vs DMSO (phenoactivity)
conditions: 48 h
Structures can show the parent of a compound that is named as a salt.

molecule	testTarget	Euclidean distance
CC(C)(O/N=C(\C(=O)N[C@@H]1C(=O)N2C(C(=O)[O-])=C(C[n+]3ccccc3)CS[C@H]12)c1csc(N)n1)C(=O)O	FB	1.06
O=c1[nH]nc2c3c(cccc13)N=C(CN1Cc3ccccc3C1)N2	FB	1.31
CCC[C@H](NC(=O)/C(C#N)=C/c1cccc(Br)n1)c1ccccc1 [Degrasyn (WP1130)]	FB	2.59
C#Cc1cccc(Nc2ncnc3cc4c(cc23)OCCOCCOCCO4)c1	FB	1.18
Clc1ccc2nsnc2c1NC1=NCCN1	FB	0.569
CC(=O)OC(C)C[N+](C)(C)C (stereo unspecified) [Methacholine chloride]	FB	0.67
CCOC(=O)C1=C(C)NC(C)=C(C(=O)OC)C1c1cccc(Cl)c1Cl (stereo unspecified)	FB	0.651
Nc1nc2cc(-c3ccc4ncc(C(=O)N5CCOCC5)n4c3)ccc2o1	FB	2.6
N[C@@H](Cc1cc(I)c(Oc2ccc(O)c(I)c2)c(I)c1)C(=O)O	FB	0.968
C[C@H]1c2cccc(O)c2C(=O)C2=C(O)[C@]3(O)C(=O)C(C(N)=O)=C(O)[C@@H](N(C)C)[C@@H]3[C@@H](O)[C@@H]21	FB	0.954
CNC(CC(=O)O)C(=O)O (stereo unspecified)	FB	0.867
NC(CO)C(=O)NNCc1ccc(O)c(O)c1O (stereo unspecified) [Benserazide HCl]	FB	0.967
Cn1cc(C2=C(c3ccc(Cl)cc3Cl)C(=O)NC2=O)c2ccccc21	FB	1.57
NC(=O)[C@@H]1CSSCCC(=O)N[C@@H](CCCCN=C(N)N)C(=O)NCC(=O)N[C@@H](CC(=O)O)C(=O)N[C@@H](Cc2c[nH]c3ccccc23)C(=O)N2CCC[C@H]2C(=O)N1 [Eptifibatide Acetate]	FB	1.11
CN(C/C=C/C#CC(C)(C)C)Cc1cccc2ccccc12	FB	0.587
Nc1c(CC(=O)O)cccc1C(=O)c1ccc(Br)cc1 [Bromfenac Sodium]	FB	1.42
CO[C@@H](C)Cn1c(=O)n(C)c2cnc3ccc(-c4cncc(C(C)(C)O)c4)cc3c21	FB	4.79
Cc1c(-c2ccc(O)cc2)n(Cc2ccc(OCCN3CCCCCC3)cc2)c2ccc(O)cc12 [Bazedoxifene HCl]	FB	4.82
Cn1ncc(Cl)c1-c1cc(C(=O)N[C@H](CN)Cc2ccc(F)c(F)c2)oc1Cl	FB	3.69
Cc1noc(NS(=O)(=O)c2ccc(N)cc2)c1C	FB	0.984
Cc1ccccc1N1C(=O)c2cc(S(N)(=O)=O)c(Cl)cc2NC1C (stereo unspecified)	FB	0.909
CC(C)(Oc1ccc(Cl)cc1)C(=O)OCCOC(=O)c1cccnc1 [Etofibrate]	FB	1.01
NC1=NCC2c3ccccc3Cc3ccccc3N12 (stereo unspecified) [Epinastine HCl]	FB	1.2
N[C@@H](CSCCCO)C(=O)O	FB	1.34
CC(C)NCC(O)COc1cccc2[nH]c3ccccc3c12 (stereo unspecified)	FB	0.974
C[C@H](Nc1ccc(C#N)n(C)c1=O)c1cc2cc(Cl)ccc2[nH]c1=O	FB	1.36
COC(=O)c1ccc2c(c1)NC(=O)/C2=C(\Nc1ccc(N(C)C(=O)CN2CCN(C)CC2)cc1)c1ccccc1	FB	4.05
NC(=O)[C@@H]1CCCN1C(=O)[C@H](Cc1c[nH]cn1)NC(=O)[C@@H]1CCC(=O)N1	FB	1.31
O=c1ccc2ccc(O)c(O)c2o1	FB	1.15
Cn1ccnc1S	FB	2.81
CS(=O)(=O)c1cccc(C[C@H](NC(=O)c2c(Cl)cc3c(c2Cl)CCN(C(=O)c2ccc4ccoc4c2)C3)C(=O)O)c1	FB	1.16
Nc1n[n+]([O-])c2ccccc2[n+]1[O-]	FB	2.3
Cc1ccc(C(=O)c2cc(O)c(O)c([N+](=O)[O-])c2)cc1	FB	0.848
CCCCOC(=O)c1ccc(O)cc1	FB	1.03
CN(C)CCOc1ccc(-c2nc(-c3ccncc3)c(-c3ccc4c(c3)CC/C4=N\O)[nH]2)cc1	FB	2.65
O=C(NNc1ccccc1)c1ccncc1	FB	1.28

---

System: OVCAR4
testMethodNotes: Euclidean distance of Cell Painting phenotypic profile (signed KS, 77 features) to DMSO centroid (dimensionless distance); 5 or 10 uM (library dependent); higher = stronger phenotypic change vs DMSO (phenoactivity)
conditions: 48 h
Counter-ions that a name gives are not always drawn.
The reader will find reported Euclidean distance values listed item by item below.

compound	testTarget	Euclidean distance
CCCC(=O)O[C@]1(C(=O)CCl)[C@H](C)C[C@@H]2[C@@H]3CCC4=CC(=O)C=C[C@]4(C)[C@]3(F)C(=O)C[C@@]21C [clobetasone butyrate]	OVCAR4	2.23
O=C1C[C@@H](c2ccc(O)cc2)Oc2cc(O)cc(O)c21	OVCAR4	1.11
Cn1cc(Nc2nccc(N3C[C@H]4CC[C@@H](C3)N4C(=O)[C@@H]3CC3(F)F)n2)cn1	OVCAR4	3.68
CC(C)(O)c1cc(Nc2cc(Oc3cn(C4CC4)nc3C3CCOCC3)ccn2)ccn1	OVCAR4	1.36
CC(C)c1nc(N(C)S(C)(=O)=O)nc(-c2ccc(F)cc2)c1/C=C/[C@@H](O)C[C@@H](O)CC(=O)O	OVCAR4	0.889
Oc1cc(O)c2c(c1)O[C@H](c1ccc(O)c(O)c1)[C@H](O)C2 [(-)Epicatechin]	OVCAR4	1.04
Nc1ccccc1NC(=O)c1ccc(CNc2nccc(-c3cccnc3)n2)cc1	OVCAR4	3.38
CC1(C)S[C@@H]2[C@H](NC(=O)[C@H](N)c3ccccc3)C(=O)N2[C@H]1C(=O)O [Ampicillin Trihydrate]	OVCAR4	1.53
Nc1ccc2cc3ccc(N)cc3nc2c1 [Proflavine Hemisulfate]	OVCAR4	5.46
C[C@@H]1C(=O)O[C@H]2C[C@@]34[C@H]5C[C@@H](C(C)(C)C)[C@]36[C@@H](OC(=O)[C@@H]6O)O[C@@]4(C(=O)O5)[C@]21O [Ginkgolide A]	OVCAR4	1.21
CC(C)C(=O)Nc1ccc([N+](=O)[O-])c(C(F)(F)F)c1 [Flutamide]	OVCAR4	1.99
CC(C(=O)O)c1cccc(Oc2ccccc2)c1 (stereo unspecified) [Fenoprofen calcium hydrate]	OVCAR4	1.2
CNCCCC12CCC(c3ccccc31)c1ccccc12 [Maprotiline HCl]	OVCAR4	0.98
CNC(=O)[C@@H](NC(=O)[C@H](CC(C)C)[C@H](O)C(=O)NO)C(C)(C)C	OVCAR4	1.4
COc1ccc(C2CNC(=O)C2)cc1OC1CCCC1 (stereo unspecified)	OVCAR4	1.44
O=c1n(CCCN2CCN(c3cccc(Cl)c3)CC2)nc2ccccn12	OVCAR4	1.37

---

Test system: HEPG2
testMethodNotes: Euclidean distance of Cell Painting phenotypic profile (signed KS, 77 features) to DMSO centroid (dimensionless distance); 5 or 10 uM (library dependent); higher = stronger phenotypic change vs DMSO (phenoactivity)
conditions: 48 h
Structures can show the parent of a compound that is named as a salt.

molecule	Euclidean distance
CCN(CC)C(=O)Nc1ccc(OCC(O)CNC(C)(C)C)c(C(C)=O)c1 (centres undefined) [Celiprolol hydrochloride]	0.422
OC(Cn1cncn1)(Cn1cncn1)c1ccc(F)cc1F [Fluconazole]	0.443
C[N+](C)(C)CC(=O)O [Betaine]	1.41
CCn1cc(C(=O)O)c(=O)c2cc(F)c(N3CCNCC3)nc21 [Enoxacin]	2.02
CNC(=O)c1ccc(Nc2ncc(C(F)(F)F)c(NCc3nccnc3N(C)S(C)(=O)=O)n2)cc1	0.842
CC(=O)[C@@]1(O)CC[C@H]2[C@@H]3C[C@H](C)C4=CC(=O)C=C[C@]4(C)[C@@]3(F)[C@@H](O)C[C@@]21C [Fluorometholone]	1.04
O=C1NC(=O)/C(=C/c2ccc3c(c2)OC(F)(F)O3)S1	1.13
O=C(Nc1c[nH]nc1-c1nc2ccc(CN3CCOCC3)cc2[nH]1)NC1CC1	2.74
CCC(C(=O)O)c1ccc(N2Cc3ccccc3C2=O)cc1 (centres undefined) [Indobufen]	0.618

---

Reported Euclidean distance values for the following compounds.
Tested on: FB
testMethodNotes: Euclidean distance of Cell Painting phenotypic profile (signed KS, 77 features) to DMSO centroid (dimensionless distance); 5 or 10 uM (library dependent); higher = stronger phenotypic change vs DMSO (phenoactivity)
conditions: 48 h
Where a name gives a salt, the structure may show the parent alone.
endpointLabel: Euclidean distance

compound	endpointLabel	resultValue
Cc1cnc(-c2cnc(NCCNc3ccc(C#N)cn3)nc2-c2ccc(Cl)cc2Cl)[nH]1	Euclidean distance	1.12
Cc1oncc1C(=O)Nc1ccc(C(F)(F)F)cc1 [Leflunomide]	Euclidean distance	2.37
CCC[C@@H]1C[C@@H](C(=O)N[C@@H]([C@H]2O[C@H](SC)[C@H](O)[C@@H](O)[C@H]2O)[C@@H](C)O)N(C)C1 [Lincomycin Hydrochloride Monohydrate]	Euclidean distance	0.981
CC(=O)OC1CC2CCC1(C)C2(C)C (centres undefined) [Bornyl acetate]	Euclidean distance	1.11
